target: Prothrombin (Homo sapiens, UniProt P00734); assay: Inhibition of human thrombin using Boc-VPR-AMC as substrate at 25 uM preincubated for 15 mins before substrate addition measured up to 10 mins by spectrofluorimetry
Calls of active or inactive are those of the source. The rule behind the calls is not given here.

{"columns": ["compound", "inhibition"],
 "data": [
  ["N#C/C(=C\\c1ccc(C(=O)N2CCCCC2)cc1)C(N)=O", "inactive"],
  ["C/C(=C(\\C#N)C(N)=O)c1ccc(O)cc1", "inactive"],
  ["CCC/C(=C(\\C#N)C(N)=O)c1ccccc1", "6.9%"],
  ["CC(C)c1ccc(/C=C(\\C#N)C(=O)NC2CC2)cc1", "17.9%"],
  ["CC(=C\\c1ccccc1)/C=C(\\C#N)C(=O)NCC1CCCO1 (stereo not drawn)", "28.7%"],
  ["N#C/C(=C\\c1ccc(O)cc1)C(N)=O", "24.4%"],
  ["CC(C)c1ccc(/C=C(\\C#N)C(=O)NCc2ccccn2)cc1", "11.6%"],
  ["CN(C)c1ccc(/C=C/CC(C#N)C(=O)NC2CC2)cc1 (stereo not drawn)", "6.7%"],
  ["N#C/C(=C\\c1cccc(O)c1)C(N)=O", "9.8%"],
  ["N#C/C(=C\\c1ccc(O)c(O)c1)C(N)=O", "18.4%"],
  ["CN(C)c1ccc(CC(C#N)C(N)=O)cc1 (stereo not drawn)", "inactive"],
  ["CN(C)c1ccc(C=C(C#N)C#N)cc1", "16.3%"],
  ["N#C/C(C(N)=O)=C1\\CCc2ccccc21", "10.3%"]
]}

###

system: West Nile virus; experiment: Inhibition of West Nile virus NS2B-NS3 protease expressed in Escherichia coli BL21 lambda (DE3) using Abz-GLKRGG-3-(NO2)Y as substrate at 50 uM preincubated for 15 mins before substrate addition measured up to 15 mins by spectrofluorimetry
Calls of active or inactive are those of the source. No cut-off for these calls is given here.

{"columns": ["compound", "systemName", "inhibition"],
 "data": [
  ["N#C/C(=C\\c1cccc(C(=O)NC2CC2)c1)C(=O)NC1CC1", "West Nile virus", "19.1%"],
  ["COc1ccc(/C=C(\\C#N)C(N)=O)cc1", "West Nile virus", "23.4%"],
  ["CC(=O)Oc1ccc(/C=C(\\C#N)C(N)=O)cc1", "West Nile virus", "28.8%"],
  ["N#C/C(=C\\c1ccc(Cl)cc1Cl)C(N)=O", "West Nile virus", "10.7%"],
  ["COC(=O)[C@H](CO)NC(=O)/C(C#N)=C/c1ccc(OC)cc1", "West Nile virus", "21.1%"],
  ["N#C/C(=C\\c1cccnc1)C(N)=O", "West Nile virus", "inactive"],
  ["N#C/C(=C\\c1ccc(N2CCOCC2)s1)C(N)=O", "West Nile virus", "29.1%"],
  ["CCN(CC)C(=O)/C(C#N)=C/c1cc(O)c(O)c([N+](=O)[O-])c1", "West Nile virus", "32.4%"],
  ["N#C/C(=C\\c1ccc(N2CCCC2)cc1)C(N)=O", "West Nile virus", "24.6%"],
  ["N#C/C(=C\\c1ccc(N2CCOCC2)cc1)C(N)=O", "West Nile virus", "35.3%"],
  ["CC(C)c1ccc(/C=C(\\C#N)C(=O)NCc2ccccn2)cc1", "West Nile virus", "39.5%"],
  ["CC(C)/C(=C(\\C#N)C(N)=O)c1ccccc1", "West Nile virus", "13.8%"],
  ["C/C(=C(/C#N)C(N)=O)c1ccc(O)cc1", "West Nile virus", "21.9%"],
  ["N#C/C(=C\\c1ccc(N2CCNCC2)cc1)C(N)=O", "West Nile virus", "45%"],
  ["N#C/C(=C\\c1c[nH]c2ccccc12)C(N)=O", "West Nile virus", "33.4%"],
  ["C/C(=C(/C#N)C(N)=O)c1ccccc1", "West Nile virus", "13.7%"],
  ["CN(C)c1ccc(/C=C/C=C(\\C#N)C(=O)NC2CC2)cc1", "West Nile virus", "17.1%"],
  ["N#Cc1n[nH]nc1-c1ccccc1", "West Nile virus", "11.2%"],
  ["COc1ccc(/C=C(\\C#N)C(N)=O)cc1OC", "West Nile virus", "22%"],
  ["N#C/C(=C\\c1ccc(CO)cc1)C(N)=O", "West Nile virus", "21.7%"],
  ["CC(C)/C(=C(/C#N)C(N)=O)c1ccccc1", "West Nile virus", "inactive"],
  ["CN(C)c1ccc(/C=C(\\C#N)C(N)=S)cc1", "West Nile virus", "inactive"],
  ["C/C(=C\\c1ccccc1)CC(C#N)C(N)=O (configuration not stated)", "West Nile virus", "inactive"],
  ["N#C/C(=C\\c1ccc(C(=O)N2CCCCC2)cc1)C(N)=O", "West Nile virus", "24%"],
  ["CN1CCN(c2ccc(/C=C(\\C#N)C(N)=O)cc2)CC1", "West Nile virus", "40.9%"],
  ["COc1cccc(/C=C(\\C#N)C(N)=O)c1", "West Nile virus", "12.3%"],
  ["CC(C)c1ccc(/C=C(\\C#N)C(=O)NC2CC2)cc1", "West Nile virus", "22.2%"],
  ["N#C/C(=C\\c1cccc(C(=O)O)c1)C(=O)NC1CC1", "West Nile virus", "20.1%"],
  ["COc1cc(/C=C(\\C#N)C(N)=O)ccc1OCc1ccccc1", "West Nile virus", "inactive"],
  ["CC(C)c1ccc(/C=C(\\C#N)C(N)=O)cc1", "West Nile virus", "24.6%"],
  ["CN1CCN(c2ccc(/C=C(\\C#N)C(=O)NC3CC3)cc2)CC1", "West Nile virus", "47.8%"],
  ["CN(C)c1ccc(/C=C(\\C#N)C(N)=O)cc1", "West Nile virus", "46%"],
  ["C/C(=C(\\C#N)C(N)=O)c1ccc(O)cc1", "West Nile virus", "22.7%"],
  ["CN(C)c1ccc(CC(C#N)C(N)=O)cc1 (configuration not stated)", "West Nile virus", "16.2%"],
  ["N#C/C(=C\\c1ccc(O)cc1)C(=O)NCc1ccccn1", "West Nile virus", "41.8%"],
  ["N#C/C(=C\\c1ccc(Br)o1)C(=O)NC1CC1", "West Nile virus", "23.9%"],
  ["N#C/C(=C\\c1ccc(Br)s1)C(N)=O", "West Nile virus", "19.2%"],
  ["COc1cc(/C=C(\\C#N)C(N)=O)cc(OC)c1OC", "West Nile virus", "19.3%"],
  ["N#C/C(=C\\c1ccc(Cl)s1)C(N)=O", "West Nile virus", "23.8%"],
  ["CN(C)c1ccc(/C=C(\\C#N)C(=O)O)cc1", "West Nile virus", "46.5%"],
  ["N#C/C(=C\\c1ccc(N2CCOCC2)o1)C(=O)NC1CC1", "West Nile virus", "24%"],
  ["N#C/C(=C\\c1ccc(O)cc1)C(=O)N1CCOCC1", "West Nile virus", "49.9%"],
  ["N#C/C(=C\\c1ccc(O)cc1)C(N)=O", "West Nile virus", "55%"],
  ["N#C/C(=C\\c1ccc(C(=O)O)cc1)C(N)=O", "West Nile virus", "23.8%"],
  ["N#CC(Cc1c[nH]c2ccccc12)C(N)=O (configuration not stated)", "West Nile virus", "inactive"],
  ["CN1CCN(c2c(F)c(F)c(/C=C(\\C#N)C(N)=O)c(F)c2F)CC1", "West Nile virus", "31.9%"],
  ["N#C/C(=C\\c1ccc(C(=O)N2CCOCC2)cc1)C(=O)NC1CC1", "West Nile virus", "23%"],
  ["CN(C)c1ccc(/C=C(\\C#N)C(=O)NC2CC2)cc1", "West Nile virus", "33.2%"],
  ["N#C/C(=C\\c1sccc1Br)C(N)=O", "West Nile virus", "19.3%"],
  ["CN(C)c1ccc(/C=C/CC(C#N)C(=O)NC2CC2)cc1 (configuration not stated)", "West Nile virus", "37%"],
  ["N#C/C(=C\\c1ccncc1)C(N)=O", "West Nile virus", "inactive"],
  ["N#C/C(=C\\c1ccccc1)C(N)=O", "West Nile virus", "9.3%"]
]}

###

target: Prothrombin (Homo sapiens); assay: Inhibition of human thrombin using Boc-VPR-AMC as substrate at 25 uM preincubated for 15 mins before substrate addition measured up to 10 mins by spectrofluorimetry
Active and inactive are the calls of the source. The calls are words filed in the database; no cut-off is given here.

{"columns": ["compound", "inhibition"],
 "data": [
  ["N#C/C(=C\\c1c[nH]c2ccccc12)C(N)=O", "16.4%"],
  ["N#C/C(=C\\c1ccc([N+](=O)[O-])cc1)C(N)=O", "inactive"],
  ["N#C/C(=C\\c1ccc(Br)s1)C(N)=O", "26.3%"],
  ["COc1cc(/C=C(\\C#N)C(N)=O)cc(OC)c1OC", "17.8%"],
  ["CC(C)/C(=C(\\C#N)C(N)=O)c1ccccc1", "10.1%"],
  ["N#C/C(=C\\c1ccc(N2CCCC2)cc1)C(N)=O", "17.7%"],
  ["CN1CCN(c2ccc(/C=C(\\C#N)C(=O)NC3CC3)cc2)CC1", "21.8%"],
  ["N#C/C(=C\\c1ccc(Br)cc1)C(N)=O", "13.6%"],
  ["COc1cc(/C=C(\\C#N)C(N)=O)ccc1O", "17.4%"],
  ["N#C/C(=C\\c1ccc(N2CCOCC2)o1)C(=O)NC1CC1", "47%"],
  ["CN(C)c1ccc(/C=C(\\C#N)C(=O)NC2CC2)cc1", "23.7%"],
  ["N#C/C(=C\\c1ccc(N2CCCCC2)cc1)C(N)=O", "20%"],
  ["N#C/C(=C\\c1cccc(C(=O)O)c1)C(=O)NC1CC1", "11.9%"],
  ["CC(C)c1ccc(/C=C(\\C#N)C(N)=O)cc1", "19.4%"],
  ["N#C/C(=C\\c1ccc(C(=O)O)cc1)C(=O)NC1CC1", "15.9%"],
  ["CN(C)c1ccc(/C=C(\\C#N)C(=O)N2CCOCC2)cc1", "25.1%"],
  ["CN1CCN(c2c(F)c(F)c(/C=C(\\C#N)C(N)=O)c(F)c2F)CC1", "28.5%"],
  ["N#C/C(=C\\c1ccc(F)cc1)C(N)=O", "7.9%"],
  ["N#C/C(=C\\c1ccc(Br)cc1)C(=O)NC1CC1", "inactive"],
  ["N#C/C(=C\\c1ccc(Cl)cc1Cl)C(N)=O", "8.5%"],
  ["N#CC(Cc1c[nH]c2ccccc12)C(N)=O (configuration not stated)", "inactive"],
  ["N#C/C(=C\\c1ccc(O)cc1)C(=O)N1CCOCC1", "18%"],
  ["N#C/C(=C\\c1ccncc1)C(N)=O", "inactive"],
  ["N#C/C(=C\\c1ccc(C#N)cc1)C(N)=O", "10.6%"],
  ["N#C/C(=C\\c1cc(O)c(O)c([N+](=O)[O-])c1)C(N)=O", "22.5%"],
  ["CN1CCN(c2ccc(/C=C(\\C#N)C(N)=O)cc2)CC1", "22%"],
  ["N#Cc1n[nH]nc1-c1ccccc1", "inactive"]
]}
